Taken from paper PMC7826273.

- target_entity: T1, FmhB (Staphylococcus aureus, UniProt Q2FVZ4 1-421)
- T1 sequence: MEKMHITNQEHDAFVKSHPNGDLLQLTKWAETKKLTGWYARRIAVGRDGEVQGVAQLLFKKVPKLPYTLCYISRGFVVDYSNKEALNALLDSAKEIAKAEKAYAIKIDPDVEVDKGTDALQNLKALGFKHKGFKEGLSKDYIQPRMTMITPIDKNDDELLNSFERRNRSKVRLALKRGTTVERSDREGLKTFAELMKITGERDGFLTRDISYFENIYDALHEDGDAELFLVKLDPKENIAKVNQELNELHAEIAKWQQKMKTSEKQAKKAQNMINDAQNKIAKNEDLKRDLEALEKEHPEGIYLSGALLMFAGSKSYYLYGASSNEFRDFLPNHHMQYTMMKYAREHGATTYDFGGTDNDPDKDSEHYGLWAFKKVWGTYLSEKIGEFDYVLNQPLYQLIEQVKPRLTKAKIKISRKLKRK
- protocol_description: competition
quantity_kind: Ki

>>> assay_value("P1 stable Gly-tRNA analogue, 2' isomer (structured_RNA, 2'-(1,4-triazole-alkyne; nonadiyne) on terminal A; penultimate C is dC (pdCpA ligation)) RNA: GCAGAAGUAGUUCAGCGGUAGAAUACAACCUUGCCAAGGUUGGGGUCGCGGGUUCGAAUCCCGUCUUCUGCUCCA")
"320 nM"

// next entry
Lab note: NP2 stable Gly-tRNA analogue, 3' isomer (structured_RNA, 3'-(1,4-triazole-alkyne; nonadiyne) on terminal A; penultimate C is dC (pdCpA ligation)) RNA: GCGGGAGUAGUUCAACUUUUAGAACACGUUCCUUCCCGGAACGAGGUAUAGGUGUAAAUCCUAUCUUCCGCUCCA gave Ki of 110 nM
